system-tested: mTORC1 (Homo sapiens, UniProt P42345+Q8N122+Q9BVC4)
assay: Inhibition of mTORC1 (unknown origin)
Assay type: protein-complex assay
property: IC50 (nM)

Past entries and their recorded results:
CC1(C)COCCN1c1nc(-c2cnc(N)cc2C(F)F)nc(N2CCOCC2(C)C)n1 ... 47
Nc1ncc(-c2nc(N3CCOCC3)nc3c2C[C@@H]2COCCN32)cn1 ... 574
CC(C)(O)c1ccc(-c2cnc3[nH]c(=O)n(CC4CCOCC4)c3n2)cn1 ... 176
C[C@H]1COCCN1c1nc(-c2cnc(N)nc2C(F)F)nc(N2CCOCC2)n1 ... 72
Nc1ncc(-c2nc(N3C4CCC3COC4)nc(N3C4COCC3COC4)n2)c(C(F)F)n1 ... 79
CO[C@H]1C[C@@H]2CC[C@@H](C)[C@@](O)(O2)C(=O)C(=O)N2CCCC[C@H]2C(=O)O[C@H]([C@H](C)C[C@@H]2CC[C@@H](OCCO)[C@H](OC)C2)CC(=O)[C@H](C)/C=C(\C)[C@@H](O)[C@@H](OC)C(=O)[C@H](C)C[C@H](C)/C=C/C=C/C=C/1C [EVEROLIMUS] ... 0.05

[I] O=c1[nH]c2ncc(-c3ccc(-c4nc[nH]n4)cc3)nc2n1CCC1CCOCC1
[II] Nc1ncc(-c2nc(N3CCOCC3)nc3c2C[C@H]2COCCN32)cn1
Which record would sort first by descending IC50, I or II ? Choose, then provide that item's label.
II

[P] CC1(C)COCCN1c1nc(-c2cnc(N)cc2C(F)F)nc(N2CCOCC2)n1
[Q] C[C@H]1COCCN1c1nc(-c2cnc(N)cc2C(F)F)nc(N2CCOCC2)n1
[R] Nc1ncc(-c2nc(N3CCOCC3)c3c(n2)N2CCOC[C@@H]2C3)cn1
Could you please sort these 3 entries by IC50 from high to low? Hello, could you send the labels back in the order asked? Thank you.
R, Q, P
